Data credit: paper PMC10842602

- targetEntity: WT human SLACK (Homo sapiens, UniProt Q5JUK3)
- Sequence (Q5JUK3 1-1235 isoform Q5JUK3-3): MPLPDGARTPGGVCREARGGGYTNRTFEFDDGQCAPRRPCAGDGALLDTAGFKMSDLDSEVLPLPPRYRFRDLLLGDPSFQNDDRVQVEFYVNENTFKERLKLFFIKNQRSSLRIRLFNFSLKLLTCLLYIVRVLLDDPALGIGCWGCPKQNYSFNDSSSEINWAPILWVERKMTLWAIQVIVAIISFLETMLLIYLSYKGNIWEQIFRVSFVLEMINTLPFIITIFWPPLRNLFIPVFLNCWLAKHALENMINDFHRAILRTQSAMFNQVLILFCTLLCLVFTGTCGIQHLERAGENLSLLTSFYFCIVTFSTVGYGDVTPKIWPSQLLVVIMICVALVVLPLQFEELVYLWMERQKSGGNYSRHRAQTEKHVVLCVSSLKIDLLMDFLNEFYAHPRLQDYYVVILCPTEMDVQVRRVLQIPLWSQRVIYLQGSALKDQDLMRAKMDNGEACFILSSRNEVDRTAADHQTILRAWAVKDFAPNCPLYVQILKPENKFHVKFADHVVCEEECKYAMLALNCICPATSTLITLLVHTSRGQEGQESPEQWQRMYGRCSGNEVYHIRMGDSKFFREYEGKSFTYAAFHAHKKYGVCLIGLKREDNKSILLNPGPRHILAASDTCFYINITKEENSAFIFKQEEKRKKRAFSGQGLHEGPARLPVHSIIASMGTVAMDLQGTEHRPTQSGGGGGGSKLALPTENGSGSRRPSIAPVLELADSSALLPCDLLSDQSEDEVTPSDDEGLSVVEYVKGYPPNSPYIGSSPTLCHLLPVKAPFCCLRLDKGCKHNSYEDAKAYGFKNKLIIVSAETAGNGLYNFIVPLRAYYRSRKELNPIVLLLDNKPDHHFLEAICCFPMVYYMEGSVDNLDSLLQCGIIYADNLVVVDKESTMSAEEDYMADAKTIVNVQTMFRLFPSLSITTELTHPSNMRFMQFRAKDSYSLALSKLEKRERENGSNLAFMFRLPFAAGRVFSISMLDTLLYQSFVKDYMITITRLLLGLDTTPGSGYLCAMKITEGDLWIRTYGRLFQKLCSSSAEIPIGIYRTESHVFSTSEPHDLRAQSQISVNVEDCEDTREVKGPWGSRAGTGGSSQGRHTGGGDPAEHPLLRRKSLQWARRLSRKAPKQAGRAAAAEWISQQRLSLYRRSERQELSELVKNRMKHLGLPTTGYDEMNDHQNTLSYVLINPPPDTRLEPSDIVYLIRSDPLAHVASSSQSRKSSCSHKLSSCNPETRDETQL
- procedureDetails: Tl+ flux assay in HEK-293 cells stably expressing WT human SLACK
- Type: cell-based
- experimentalContext: CRC; IC50 for compounds of mode Inh (also cells printed Inactive)
readoutName: IC50 / EC50 (µM)

Reference set, count: 5
>>> endpointresult("CCOc1ccccc1S(=O)(=O)N1CC(c2nc(-c3ccccc3F)no2)C1")
7.9
>>> endpointresult("O=S(=O)(c1ccccc1OCC1CCC1)N1CC(c2nc(-c3ccc(F)cc3)no2)C1")
9.3
>>> endpointresult("O=S(=O)(c1ccccc1OC1CCCC1)N1CC(c2nc(-c3ccc(F)cc3)no2)C1")
5.8
>>> endpointresult("O=S(=O)(c1ccccc1OCC(F)(F)F)N1CC(c2nc(-c3ccc(F)cc3)no2)C1")
8.8
>>> endpointresult("CCOc1ccccc1S(=O)(=O)N1CC(c2nc(-c3ccc(Cl)cc3)no2)C1")
11

A. CCOc1ccccc1S(=O)(=O)N1CC(c2nc(-c3ccc(F)cc3)no2)C1
B. O=S(=O)(c1ccccc1OCC1CC1)N1CC(c2nc(-c3ccc(F)cc3)no2)C1
C. CCOc1ccccc1S(=O)(=O)N1CC(c2nc(-c3ccc(F)cc3Cl)no2)C1
Problem: Sort (3 compounds) by IC50 / EC50: min first. Provide your answer as the labels ordered per the instruction.
Solution: C, A, B
(C: 2.1 µM, A: 3.2 µM, B: 6.0 µM)
